- target: HLA A6801 (human)
- protocol-summary: 125I-probe competition, purified HLA
Answer each item with its documented IC50.
Numbers only, in nM.

binder: STWHWTGCNK (modifications not checked) [HPV45.E2.322]
u: nM
IC50: 18
--
binder: STAAALYWYK (modifications not checked) [HPV16.E1.314]
u: nM
IC50: 6
--
binder: AVMCRHYKR (modifications not checked) [HPV45.E1.399]
u: nM
IC50: 29
--
binder: QVVPAYNISK (modifications not checked) [HPV18.E2.61]
u: nM
IC50: 8
--
binder: SVICFVNSK (modifications not checked) [HPV16.E1.497]
u: nM
IC50: 5.4

# return IC50 for each item in the list
1. ATMCRHYKR (modifications not checked) [HPV16.E1.406]
2. STAAALYWYR (modifications not checked) [HPV31.E1.294]

[A]
[35, 12]

Please state, for each entry, its recorded IC50.
1. KSLFGMSLMK (modifications not checked) [HPV16.E1.483]
2. RQMNMSQWIK (modifications not checked) [HPV45.E1.411]

[A]
887
2560
